tested on: human Factor 7 mRNA; experiment: Antisense inhibition of human Factor 7 mRNA in HepB3 cells, 50 nM antisense oligonucleotide, lipofectin; type: cell-based; settings: lipofectin, 50 nM antisense oligonucleotide, approximately 24 hours, Factor 7 mRNA by real-time RT-PCR (RTS 2927), relative to untreated control
Strand notation (5' to 3'): a small letter for the sugar, then the base; units joined by * are phosphorothioate-linked, units joined directly phosphodiester-linked; [ ] holds rarer units or linkages, { } end groups; capitals alone tell only the bases. e = 2'-O-(2-methoxyethyl) (MOE); [5mC] = 5-methylcytosine; d = 2'-deoxy (DNA)
readout: % Inhibition (%)
Give bare numbers, in %.

substance: 416505 (antisense eG*e[5mC]*eA*eG*eA*dT*dT*dT*dG*d[5mC]*dA*dT*d[5mC]*dA*dG*eA*eA*eA*eA*eG) [compound 416505]
measurement.target: human Factor 7 mRNA
units.text: %
% Inhibition: 45

Would you mind giving % Inhibition for every substance in the list below?
1. 416528 (antisense eT*eG*eA*eT*eA*dA*dA*dA*d[5mC]*d[5mC]*dT*d[5mC]*dT*dG*dG*eA*e[5mC]*eA*e[5mC]*e[5mC]) [compound 416528]
2. 416493 (antisense eT*e[5mC]*eT*eT*eG*dG*dG*dT*dG*dT*dG*dG*dA*dT*dG*eT*eA*eA*eA*eT) [compound 416493]
3. 416498 (antisense eG*eG*e[5mC]*e[5mC]*eA*dG*dT*dG*dG*d[5mC]*d[5mC]*dA*dT*dG*d[5mC]*eA*eT*e[5mC]*e[5mC]*e[5mC]) [compound 416498]
4. 416562 (antisense eA*eA*eA*eG*e[5mC]*dA*dG*dA*dG*d[5mC]*d[5mC]*dA*dG*d[5mC]*dT*e[5mC]*eT*eG*eA*e[5mC]) [compound 416562]

Ans:
10
0
5
12

---

system: human Factor 7 mRNA; assay: Antisense inhibition of human Factor 7 mRNA in HepB3 cells, 50 nM antisense oligonucleotide, lipofectin; assay type: cell-based; conditions: Table 1, 50 nM, lipofectin, approximately 24 hours, relative to untreated control cells
Strand notation (5' to 3'): a small letter for the sugar, then the base; units joined by * are phosphorothioate-linked, units joined directly phosphodiester-linked; [ ] holds rarer units or linkages, { } end groups; capitals alone tell only the bases. e = 2'-O-(2-methoxyethyl) (MOE); [5mC] = 5-methylcytosine; d = 2'-deoxy (DNA)
Would you kindly list % Inhibition for each of these substances?
Give bare numbers, in %.

Some entries whose results are on file:
substance: 407601 (antisense e[5mC]*eA*eG*e[5mC]*e[5mC]*d[5mC]*dT*dG*dA*dA*dG*d[5mC]*d[5mC]*d[5mC]*dA*eA*eG*e[5mC]*eA*eG) [compound 407601]
meas.value: 52
--
substance: 407963 (antisense eA*eG*eA*eG*e[5mC]*dA*dG*dG*dG*dT*dG*d[5mC]*d[5mC]*dT*dT*eG*eG*eA*eA*eG) [compound 407963]
meas.value: 33
--
substance: 407657 (antisense eG*eG*eG*eA*e[5mC]*dT*d[5mC]*dA*dG*d[5mC]*dA*dA*dG*dA*dG*eT*eG*e[5mC]*eA*eG) [compound 407657]
meas.value: 26

Would you mind giving % Inhibition for every substance in the list below?
1. 407665 (antisense eG*eT*eT*eA*e[5mC]*dG*dA*dA*dG*dA*d[5mC]*dT*dG*dG*dG*eA*eA*eA*eT*eG) [compound 407665]
2. 407958 (antisense eG*e[5mC]*e[5mC]*eG*eT*dG*d[5mC]*dT*dT*dG*d[5mC]*d[5mC]*dG*dG*dA*eG*eT*e[5mC]*eT*eG) [compound 407958]
3. 407940 (antisense eT*eG*eT*eG*eA*dA*dG*d[5mC]*dT*dG*dG*dG*dA*dA*dG*e[5mC]*eA*eG*eG*eT) [compound 407940]

Ans:
[29, 58, 62]

---

Would you kindly list % Inhibition for each of these substances?
system: human Factor 7 mRNA; test: Antisense inhibition of human Factor 7 mRNA in HepB3 cells, 50 nM antisense oligonucleotide, lipofectin; format: cell-based; conditions: lipofectin, 50 nM antisense oligonucleotide, approximately 24 hours, Factor 7 mRNA by real-time RT-PCR (RTS 2927), relative to untreated control
Strand notation (5' to 3'): a small letter for the sugar, then the base; units joined by * are phosphorothioate-linked, units joined directly phosphodiester-linked; [ ] holds rarer units or linkages, { } end groups; capitals alone tell only the bases. e = 2'-O-(2-methoxyethyl) (MOE); [5mC] = 5-methylcytosine; d = 2'-deoxy (DNA)
Answers are plain numbers, in %.

Some entries whose results are on file:
substance: 416525 (antisense eT*eA*eT*eG*eA*dG*dT*d[5mC]*d[5mC]*dT*dT*d[5mC]*dT*dA*dG*eT*eG*eA*eA*eT) [compound 416525]
units.text: %
% Inhibition: 5
//
substance: 416500 (antisense e[5mC]*eT*eG*eA*eA*d[5mC]*dA*d[5mC]*d[5mC]*d[5mC]*d[5mC]*dA*dG*d[5mC]*dT*eG*eA*eG*eA*eG) [compound 416500]
units.text: %
% Inhibition: 1

From here, focus on the item given below.
Q: # query: % Inhibition of entry 416542 (antisense e[5mC]*eA*eG*eG*eG*dT*dG*d[5mC]*d[5mC]*d[5mC]*dA*dT*d[5mC]*d[5mC]*dT*eA*eG*eT*e[5mC]*eA) [compound 416542]
Ans: 56

---

Would you kindly list percent inhibition of Factor 7 mRNA, relative to untreated control cells for each of these substances?
tested on: human Factor 7 mRNA; assay: Dose-dependent antisense inhibition of human Factor 7 in HepB3 cells, electroporation; format: cell-based; conditions: 3.125 μM, approx. 16 hours (Table 15, Example 7)
Strand notation (5' to 3'): a small letter for the sugar, then the base; units joined by * are phosphorothioate-linked, units joined directly phosphodiester-linked; [ ] holds rarer units or linkages, { } end groups; capitals alone tell only the bases. e = 2'-O-(2-methoxyethyl) (MOE); [5mC] = 5-methylcytosine; d = 2'-deoxy (DNA)
Give bare numbers, in %.

Would you mind giving percent inhibition of Factor 7 mRNA, relative to untreated control cells for every substance in the list below?
1. 422252 (antisense e[5mC]*eG*d[5mC]*d[5mC]*dG*dG*d[5mC]*dT*d[5mC]*dT*dG*d[5mC]*dT*d[5mC]*dA*eT*e[5mC]*e[5mC]*e[5mC]*e[5mC]) [compound 422252]
2. 422177 (antisense e[5mC]*e[5mC]*e[5mC]*dG*d[5mC]*d[5mC]*dG*dG*d[5mC]*dT*d[5mC]*dT*dG*d[5mC]*dT*d[5mC]*dA*eT*e[5mC]*e[5mC]) [compound 422177]
3. 422292 (antisense eG*eT*dT*d[5mC]*dT*dG*d[5mC]*dA*dG*dG*dA*dG*d[5mC]*dG*dG*e[5mC]*e[5mC]*eT*eA*eA) [compound 422292]
4. 422130 (antisense eG*e[5mC]*e[5mC]*eT*eG*dA*dG*dG*d[5mC]*d[5mC]*dA*dG*d[5mC]*dA*dG*eA*eT*e[5mC]*eA*e[5mC]) [compound 422130]

Ans:
1: 23; 2: 3; 3: 36; 4: 28

Would you mind giving percent inhibition of Factor 7 mRNA, relative to untreated control cells for every substance in the list below?
1. 422296 (antisense e[5mC]*e[5mC]*dG*dA*dG*dT*dT*d[5mC]*dT*dG*d[5mC]*dA*dG*dG*dA*eG*e[5mC]*eG*eG*e[5mC]) [compound 422296]
2. 422096 (antisense eA*eG*eA*e[5mC]*eA*dA*dT*dG*dG*dT*d[5mC]*dA*dG*dG*dG*e[5mC]*eT*eG*eG*eT) [compound 422096]
3. 422217 (antisense eG*eA*eG*dT*dT*d[5mC]*dT*dG*d[5mC]*dA*dG*dG*dA*dG*d[5mC]*dG*dG*e[5mC]*e[5mC]*eT) [compound 422217]
4. 407935 (antisense eA*eT*eG*e[5mC]*eA*dT*dG*dG*dT*dG*dA*dT*dG*d[5mC]*dT*eT*e[5mC]*eT*eG*eA) [compound 407935]
5. 422295 (antisense e[5mC]*eG*dA*dG*dT*dT*d[5mC]*dT*dG*d[5mC]*dA*dG*dG*dA*dG*e[5mC]*eG*eG*e[5mC]*e[5mC]) [compound 422295]

Ans:
62
26
15
37
10

---

system: human Factor 7 mRNA; assay: Dose-dependent antisense inhibition of human Factor 7 in HepB3 cells, lipofectin; format: cell-based; settings: 50 nM, HepB3 cells, approx. 16 hours (Table 14)
Strand notation (5' to 3'): a small letter for the sugar, then the base; units joined by * are phosphorothioate-linked, units joined directly phosphodiester-linked; [ ] holds rarer units or linkages, { } end groups; capitals alone tell only the bases. e = 2'-O-(2-methoxyethyl) (MOE); [5mC] = 5-methylcytosine; d = 2'-deoxy (DNA)
Would you kindly list percent inhibition of Factor 7 mRNA, relative to untreated control cells for each of these substances?
Numbers only, in %.

Some entries whose results are on file:
substance: 422228 (antisense eT*eG*d[5mC]*dA*dT*dG*dG*dT*dG*dA*dT*dG*d[5mC]*dT*dT*e[5mC]*eT*eG*eA*eA) [compound 422228]
meas.value: 78
--
substance: 422150 (antisense eG*e[5mC]*eA*dT*dG*dG*dT*dG*dA*dT*dG*d[5mC]*dT*dT*d[5mC]*dT*dG*eA*eA*eT) [compound 422150]
meas.value: 79

From here, focus on the item given below.
Q: # query: percent inhibition of Factor 7 mRNA, relative to untreated control cells of entry 422087 (antisense e[5mC]*eA*eT*eG*e[5mC]*dA*dT*dG*dG*dT*dG*dA*dT*dG*d[5mC]*eT*eT*e[5mC]*eT*eG) [compound 422087]
Ans: 83

Every entry's value here was drawn from patent US9029337B2.
